Kindly supply the reported inhibition at 10 µM values for the records listed here.
Tested on: RAW264.7
assayText: Antiinflammatory activity in mouse RAW264.7 cells assessed as inhibition of LPS-induced nitric oxide production at 10 uM preincubated for 1 hr followed by LPS stimulation and measured after 24 hrs by Griess reagent-based assay relative to control
Type: functional
assaySetup: time 25 hrs
Numeric answer only, unit % assumed.

In: Consider the compound COCCCCOc1ccc(C(O)C2OC(=O)c3c(OC)cc(OC)cc32)cc1 (stereo unspecified) and give its measured inhibition at 10 µM.
Out: 50.3

In: Consider the compound CCCOc1ccc(C(O)C2OC(=O)c3c(OC)cc(OC)cc32)cc1 (stereo unspecified) and give its measured inhibition at 10 µM.
Out: 53.2

In: Consider the compound O=C1OC(Cc2nc(Cc3ccccc3)no2)c2ccccc21 (stereo unspecified) and give its measured inhibition at 10 µM.
Out: 25.1

In: Consider the compound COc1cc(OC)c2c(c1)C(C(O)c1ccc(OCC3CCCCC3)cc1)OC2=O (stereo unspecified) and give its measured inhibition at 10 µM.
Out: 27.4

In: Consider the compound O=C1OC(Cc2nc(-c3ccc(Oc4ccccc4)cc3)no2)c2ccccc21 (stereo unspecified) and give its measured inhibition at 10 µM.
Out: 10

In: Consider the compound COc1cc(OC)c2c(c1)C(C(O)c1ccc(OCCOc3ccccc3)cc1)OC2=O (stereo unspecified) and give its measured inhibition at 10 µM.
Out: 41.2

In: Consider the compound COc1cc(OC)c2c(c1)C(C(O)c1ccc(OCc3ccc(OC(F)F)cc3)cc1)OC2=O (stereo unspecified) and give its measured inhibition at 10 µM.
Out: 67.6

In: Consider the compound COc1ccc2c(c1)c(CC(=O)O)c(C)n2C(=O)c1ccc(Cl)cc1 [INDOMETHACIN] and give its measured inhibition at 10 µM.
Out: 61.6

In: Consider the compound COCCCOc1ccc(C(O)C2OC(=O)c3c(OC)cc(OC)cc32)cc1 (stereo unspecified) and give its measured inhibition at 10 µM.
Out: 89.5

In: Consider the compound COc1cc(OC)c2c(c1)C(C(O)c1ccc(OCc3ccc(Br)cc3)cc1)OC2=O (stereo unspecified) and give its measured inhibition at 10 µM.
Out: 68.1

In: Consider the compound COc1cc(OC)c2c(c1)C(C(O)c1ccc(OCc3ccccc3)cc1)OC2=O (stereo unspecified) and give its measured inhibition at 10 µM.
Out: 41.2

In: Consider the compound O=C1OC(Cc2nc(-c3ccccc3)no2)c2ccccc21 (stereo unspecified) and give its measured inhibition at 10 µM.
Out: 13

In: Consider the compound CCCCCCOc1ccc(C(O)C2OC(=O)c3c(OC)cc(OC)cc32)cc1 (stereo unspecified) and give its measured inhibition at 10 µM.
Out: 62.2

In: Consider the compound COc1ccc(/C=C2\OC(=O)c3c(OC)cc(OC)cc32)cc1 and give its measured inhibition at 10 µM.
Out: 36.3

In: Consider the compound COc1cc(OC)c2c(c1)C(C(O)c1ccc(O)cc1)OC2=O (stereo unspecified) and give its measured inhibition at 10 µM.
Out: 46.1

In: Consider the compound COc1ccc(C(O)C2OC(=O)c3c(OC)cc(OC)cc32)cc1 (stereo unspecified) and give its measured inhibition at 10 µM.
Out: 38.7

In: Consider the compound COc1cc(OC)c2c(c1)/C(=C/c1ccc(OCc3ccc(F)cc3)cc1)OC2=O and give its measured inhibition at 10 µM.
Out: 48.2

In: Consider the compound Cc1noc(CC2OC(=O)c3ccccc32)n1 (stereo unspecified) and give its measured inhibition at 10 µM.
Out: 24.3

In: Consider the compound COCCOc1ccc(C(O)C2OC(=O)c3c(OC)cc(OC)cc32)cc1 (stereo unspecified) and give its measured inhibition at 10 µM.
Out: 41.4

In: Consider the compound COc1cc(OC)c2c(c1)C(C(O)c1ccc(OCc3ccc(F)cc3)cc1)OC2=O (stereo unspecified) and give its measured inhibition at 10 µM.
Out: 95.2

In: Consider the compound COc1cc(OC)c2c(c1)C(C(O)c1ccc(OCC(C)C)cc1)OC2=O (stereo unspecified) and give its measured inhibition at 10 µM.
Out: 48.6

In: Consider the compound COc1cc(OC)c2c(c1)C(C(O)c1ccc(OCc3ccc(C#N)cc3)cc1)OC2=O (stereo unspecified) and give its measured inhibition at 10 µM.
Out: 60.8

In: Consider the compound COc1cc(OC)c2c(c1)C(C(O)c1ccc(OCc3ccc(C)cc3)cc1)OC2=O (stereo unspecified) and give its measured inhibition at 10 µM.
Out: 82.1

In: Consider the compound O=C1OC(Cc2nc(-c3ccc(-c4ccccc4)cc3)no2)c2ccccc21 (stereo unspecified) and give its measured inhibition at 10 µM.
Out: 25.2

In: Consider the compound CCCCOc1ccc(C(O)C2OC(=O)c3c(OC)cc(OC)cc32)cc1 (stereo unspecified) and give its measured inhibition at 10 µM.
Out: 83.7

In: Consider the compound CCOc1ccc(C(O)C2OC(=O)c3c(OC)cc(OC)cc32)cc1 (stereo unspecified) and give its measured inhibition at 10 µM.
Out: 43.2

In: Consider the compound C=CCCOc1ccc(C(O)C2OC(=O)c3c(OC)cc(OC)cc32)cc1 (stereo unspecified) and give its measured inhibition at 10 µM.
Out: 87.2

In: Consider the compound COc1cc(OC)c2c(c1)C(C(O)c1ccc(OCc3ccc(Cl)cc3)cc1)OC2=O (stereo unspecified) and give its measured inhibition at 10 µM.
Out: 75.1

In: Consider the compound CCOCCOc1ccc(C(O)C2OC(=O)c3c(OC)cc(OC)cc32)cc1 (stereo unspecified) and give its measured inhibition at 10 µM.
Out: 42.9

In: Consider the compound COc1cc(OC)c2c(c1)C(C(O)c1ccc(OCc3ccc(OC(F)(F)F)cc3)cc1)OC2=O (stereo unspecified) and give its measured inhibition at 10 µM.
Out: 62.8

In: Consider the compound COc1cc(OC)c2c(c1)/C(=C/c1ccc(OCc3ccccc3)cc1)OC2=O and give its measured inhibition at 10 µM.
Out: 44.3
